System tested: BCL-XL (Homo sapiens)
Construct: endogenous in cells; host or cells: MOLT-4
Method description: Bcl-xL ELISA degradation in MOLT-4 cells, 6 h
Type: cell-based
Could you please report measured Dmax for the items listed next?

Record request: Dmax value, item C#Cc1ccc([C@H](C)NC(=O)[C@@H]2C[C@@H](O)CN2C(=O)[C@@H](NC(=O)CCCCCC(=O)N2CCN(CC[C@H](CSc3ccccc3)Nc3ccc(S(=O)(=O)NC(=O)c4ccc(N5CCN(CC6=C(c7ccc(Cl)cc7)CCC(C)(C)C6)CC5)cc4)cc3S(=O)(=O)C(F)(F)F)CC2)C(C)(C)C)cc1
50 to 75%

Record request: Dmax value, item Cc1ncsc1-c1ccc([C@H](C)NC(=O)[C@@H]2C[C@@H](O)CN2C(=O)[C@@H](NC(=O)CCCCS(=O)(=O)NC(=O)c2nc(N3CCc4cccc(C(=O)Nc5nc6ccccc6s5)c4C3)ccc2-c2cnn(CC3CCCCC3)c2C)C(C)(C)C)cc1
> 75%

Record request: Dmax value, item Cc1ncsc1-c1ccc([C@H](C)NC(=O)[C@@H]2C[C@@H](O)CN2C(=O)[C@@H](NC(=O)C2CCN(c3ccc(S(=O)(=O)NC(=O)c4nc(N5CCc6cccc(C(=O)Nc7nc8ccccc8s7)c6C5)ccc4-c4cnn(CC5CCCCC5)c4C)cc3)C(=O)C2)C(C)(C)C)cc1 (stereo partly drawn)
> 75%

Record request: Dmax value, item C#Cc1ccc([C@H](C)NC(=O)[C@@H]2C[C@@H](O)CN2C(=O)[C@@H](NC(=O)CCCCCS(=O)(=O)NC(=O)c2nc(N(C)c3cc(C)c(Nc4nc5ccccc5s4)nn3)ccc2-c2cnn(CC34CC5CC(CC(C5)C3)C4)c2C)C(C)(C)C)c(O)c1
> 75%

Record request: Dmax value, item Cc1cc(N(C)c2ccc(-c3cnn(CC45CC6CC(CC(C6)C4)C5)c3C)c(C(=O)NS(=O)(=O)c3ccc(N4CC(C(=O)N[C@H](C(=O)N5C[C@H](O)C[C@H]5C(=O)N[C@@H](C)c5ccc(-c6scnc6C)cc5)C(C)(C)C)C4)cc3)n2)nnc1Nc1nc2ccccc2s1
> 75%

Record request: Dmax value, item C#Cc1ccc(C2(NC(=O)[C@@H]3C[C@@H](O)CN3C(=O)[C@@H](NC(=O)CCCCCS(=O)(=O)NC(=O)c3nc(N4CCc5cccc(C(=O)Nc6nc7cccnc7s6)c5C4)ccc3-c3cnn(CC4CCCCC4)c3C)C(C)(C)C)CC2)cc1
> 75%

* * *

System tested: BCL-XL (Homo sapiens, UniProt Q07817)
Construct: endogenous in cells; host or cells: MOLT-4
Sequence (Q07817 whole entry): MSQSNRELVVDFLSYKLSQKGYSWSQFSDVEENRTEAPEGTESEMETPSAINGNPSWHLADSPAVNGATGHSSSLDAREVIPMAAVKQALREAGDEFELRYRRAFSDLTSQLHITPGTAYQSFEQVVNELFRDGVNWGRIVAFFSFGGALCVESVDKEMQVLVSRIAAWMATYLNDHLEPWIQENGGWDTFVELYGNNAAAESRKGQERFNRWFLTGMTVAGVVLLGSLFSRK
Method description: Bcl-xL ELISA degradation in MOLT-4 cells, 6 h
Assay type: cell-based
Outcome measure: Dmax

Record request: Dmax value, item Cc1ncsc1-c1ccc([C@H](C)NC(=O)[C@@H]2C[C@@H](O)CN2C(=O)[C@@H](NC(=O)C2CCN(c3ccc(S(=O)(=O)NC(=O)c4nc(N5CCc6cccc(C(=O)Nc7nc8ccccc8s7)c6C5)ccc4-c4cnn(CC5CCCCC5)c4C)cc3CC(=O)O)CC2)C(C)(C)C)cc1
50 to 75%

Record request: Dmax value, item Cc1ncsc1-c1ccc(CNC(=O)[C@@H]2C[C@@H](O)CN2C(=O)[C@H](c2cc(N3CC4(CN(CCCC(=O)N(C)CC#Cc5ccc(OCCCc6ccc(N7CCc8cccc(C(=O)Nc9nc%10ccccc%10s9)c8C7)nc6C(=O)O)c(F)c5)C4)C3)no2)C(C)C)cc1
50 to 75%

Record request: Dmax value, item Cc1ncsc1-c1ccc(CNC(=O)[C@@H]2C[C@@H](O)CN2C(=O)[C@@H](NC(=O)C2(F)CC2)C(C)(C)C)c(OCCCN(C)CC[C@H](CSc2ccccc2)Nc2ccc(S(=O)(=O)NC(=O)c3ccc(N4CCN(CC5=C(c6ccc(Cl)cc6)CCC(C)(C)C5)CC4)cc3)cc2S(=O)(=O)C(F)(F)F)c1
50 to 75%

Record request: Dmax value, item Cc1ncsc1-c1ccc(CNC(=O)[C@@H]2C[C@@H](O)CN2C(=O)[C@@H](NC(=O)C2(F)CC2)C(C)(C)C)c(OC2CCN(CC3CCN(C(=O)c4nc(N5CCc6cccc(C(=O)Nc7nc8ccccc8s7)c6C5)ccc4-c4cnn(CC5CCCCC5)c4C)CC3)CC2)c1
< 50%

Data provenance: patent US20250197387A1
